Sourced from ChEMBL document CHEMBL5506022

# test protocol: AUC (0 to infinity) in Sprague-Dawley rat at 10 mg/kg, po measured after 24 hrs by LC-MS/MS analysis
# Assay type: ADME, organism-based
# assay setup: in vivo
attribute measured: AUC(0-inf) (ng·h/mL)
Express your answer in ng·h/mL, writing the number without its unit.

Field request: AUC(0-inf) | item: C[C@H](Nc1nccc(N2C(=O)OC[C@@H]2[C@H](C)F)n1)c1ccc(-c2ccc(NC(=O)COc3cccnc3)cc2)cc1
921

###

# test protocol: AUC (0 to t) in Sprague-Dawley rat at 10 mg/kg, po measured after 24 hrs by LC-MS/MS analysis
# Format: ADME, organism-based
# assay setup: in vivo
attribute measured: AUC(0-t) at 24 h (ng·h/mL)
Kindly answer with a numeric value in ng·h/mL, unit omitted.

Quick one: AUC(0-t) at 24 h of C[C@H](Nc1nccc(N2C(=O)OC[C@@H]2[C@H](C)F)n1)c1ccc(-c2ccc(NC(=O)COc3cccnc3)cc2)cc1 ?
919

###

# target: Isocitrate dehydrogenase [NADP] cytoplasmic (Homo sapiens, UniProt O75874)
# Sequence (O75874 whole entry): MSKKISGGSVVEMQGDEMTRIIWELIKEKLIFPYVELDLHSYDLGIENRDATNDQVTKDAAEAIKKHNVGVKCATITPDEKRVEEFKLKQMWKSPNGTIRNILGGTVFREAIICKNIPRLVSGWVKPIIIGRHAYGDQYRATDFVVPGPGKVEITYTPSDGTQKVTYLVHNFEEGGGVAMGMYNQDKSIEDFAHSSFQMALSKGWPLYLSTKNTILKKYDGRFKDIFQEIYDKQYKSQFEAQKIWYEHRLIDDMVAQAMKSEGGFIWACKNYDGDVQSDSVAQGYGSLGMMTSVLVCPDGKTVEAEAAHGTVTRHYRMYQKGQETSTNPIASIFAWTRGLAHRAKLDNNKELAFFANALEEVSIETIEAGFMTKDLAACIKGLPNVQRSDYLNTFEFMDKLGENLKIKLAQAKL
// NB: equality with 7 µM counts as F; only IC50 strictly below is T

Completed entries (count: 4):
{"smiles input": "CC(C)[C@H]1COC(=O)N1c1ccnc(N[C@@H](C)c2ccc(-c3ccc(NC(=O)c4cnc5[nH]ccc5c4)cc3)cc2)n1", "label": "T"}
{"smiles input": "CC(C)[C@H]1COC(=O)N1c1ccnc(N[C@@H](C)c2ccc(NC(=O)CNC(=O)/C=C/c3cccnc3)cc2)n1", "label": "T"}
{"smiles input": "C[C@H](Nc1nccc(N2C(=O)OC[C@@H]2Cc2ccccc2)n1)c1ccc(-c2ccc(NC(=O)COc3cccnc3)cc2)cc1", "label": "F"}
{"smiles input": "C[C@H](Nc1nccc(N2C(=O)OC[C@@H]2[C@H](C)F)n1)c1ccc(-c2ccc(NC(=O)COc3cccnc3)cc2)cn1", "label": "F"}

Dear reviewer, please state whether C[C@H](Nc1nccc(N2C(=O)OC[C@@H]2[C@H](C)F)n1)c1ccc(-c2ccc(NC(=O)c3ccc4nccn4c3)cc2)cn1 has IC50 strictly beneath 7 µM.
F

How about this molecule: CC(C)[C@H]1COC(=O)N1c1ccnc(N[C@@H](C)c2ccc(NC(=O)CCCCNC(=O)/C=C/c3cccnc3)cc2)n1
T

###

# Tested on: U-87 MG
# test protocol: Synergistic antiproliferative activity against human U-87 MG cells harboring wildtype IDH1 assessed as inhibition of cell growth incubated for 48 hrs in presence of AG-120 by CCK8 assay
# Format: functional, cell-based, U-87MG ATCC
attribute measured: pIC50
Scale explanation: pIC50 corresponds to minus log10 of a concentration expressed in moles per litre.

Could you tell me which pIC50 is on file for O=C(/C=C/c1cccnc1)NCCCCC1CCN(C(=O)c2ccccc2)CC1 [DAPORINAD] ?
5.60

###

# test protocol: Half-life in Sprague-Dawley rat at 1 mg/kg, iv measured after 24 hrs by LC-MS/MS analysis
# Assay type: ADME, organism-based
# assay setup: in vivo
attribute measured: half-life (h)
Quick reminder: number only, in h, skip the unit.

Can you look up the measured half-life of C[C@H](Nc1nccc(N2C(=O)OC[C@@H]2[C@H](C)F)n1)c1ccc(-c2ccc(NC(=O)COc3cccnc3)cc2)cc1 for me?
1.16
